Where do these numbers come from? They come from patent US5672715A.

# Tested on: Yellow Foxtail
# assay-protocol: pre-emergence herbicide test
# Assay type: in vivo
# condition-description: Setaria, 0.0071 lb/A, read-out: % plant inhibition
measured-attribute: inhibition at 7.95803 g/ha (%)
Please respond with the number in % and leave the unit unwritten.

> print(dat)
                            chemical.smiles   system.tested  recorded.result
1   COc1cc(-c2nn(C)c(C(F)(F)F)c2C)c(F)cc1Cl  Yellow Foxtail               55
2  COc1cc(-c2nn(C)c(C(F)(F)F)c2C)c(F)cc1[N+](=O)[O-]  Yellow Foxtail                0
3  Cc1c(-c2cc(OCC(=O)OC(C)C)c(Cl)cc2F)nn(C)c1C(F)(F)F  Yellow Foxtail                0

Attention now turns to another entry.
Determine its reported inhibition at 7.95803 g/ha: C#CCOc1cc(-c2nn(C)c(C(F)(F)F)c2C)c(F)cc1Cl
95
